Entries annotated with measured IC50
tested on: human Gal-1 (hGal-1) (Homo sapiens, UniProt P09382, C131S/C17S/C43S/C61S/C89S)
assay info: Competitive binding assay: biotinylated hGal-1 binding to microplate-adsorbed asialofetuin (ASF)
measurement context: IC50 values from several measurements given as geomean
Numeric answer only, unit nM assumed.

Example cases with answers are listed next.
IC50 in this record for CO[C@@H]1[C@@H](n2cc(-c3ccc(Cl)c(F)c3F)nn2)[C@@H](O)[C@@H](CO)O[C@@H]1Cn1cc(C2(C)COC2)nn1 [Ex 2.2.6.] : 1170

IC50 in this record for CO[C@@H]1[C@@H](n2cc(-c3ccc(Cl)c(F)c3F)nn2)[C@@H](O)[C@@H](CO)O[C@@H]1Cc1cn(C23CC(C)(C2)C3)nn1 [Ex 2.1.14.] : 3450

IC50 in this record for CO[C@@H]1[C@@H](n2cc(-c3ccc(Cl)c(F)c3F)nn2)[C@@H](O)[C@@H](CO)O[C@@H]1Cc1cn(C23CC(C2)C3)nn1 [Ex 2.1.12.] : 3250

IC50 in this record for CO[C@@H]1[C@@H](n2cc(-c3ccc(Cl)c(F)c3F)nn2)[C@@H](O)[C@@H](CO)O[C@@H]1Cc1cn(C2(C)CC(F)(F)C2)nn1 [Ex 2.1.15.] : 1710

IC50 in this record for CO[C@@H]1[C@@H](n2cc(-c3ccc(Br)c(F)c3F)nn2)[C@@H](O)[C@@H](CO)O[C@@H]1Cc1cn(C2(CF)CC2)nn1 [Ex 4.1.46.] : 1940

IC50 in this record for CO[C@@H]1[C@@H](n2cc(-c3ccc(Cl)c(F)c3F)nn2)[C@@H](O)[C@@H](CO)O[C@@H]1Cc1cn(C2COCC2(F)F)nn1 (mixture of isomers) [Example 2.1.90.A] : 1130

IC50 in this record for CO[C@@H]1[C@@H](n2cc(-c3ccc(Cl)c(F)c3F)nn2)[C@@H](O)[C@@H](CO)O[C@@H]1Cn1cc(C2(CO)CC2)nn1 [Ex 2.2.4.] : 1480

IC50 in this record for CO[C@@H]1[C@@H](n2cc(-c3ccc(C)c(F)c3F)nn2)[C@@H](O)[C@@H](CO)O[C@@H]1Cc1cn([C@@H]2COCC[C@H]2O)nn1 [Ex 1.1.1.] : 2610

Continuing:
IC50 in this record for COCC1(n2cc(C[C@H]3O[C@H](CO)[C@H](O)[C@H](n4cc(-c5ccc(F)c(F)c5F)nn4)[C@H]3OC)nn2)CC1 [Ex 3.1.7.] : 1200

IC50 in this record for CO[C@@H]1[C@@H](n2cc(-c3ccc(Cl)c(F)c3F)nn2)[C@@H](O)[C@@H](CO)O[C@@H]1Cc1cn([C@@H]2COC[C@H]2F)nn1 (single isomer, unassigned) [Example 2.1.74.D] : 3540

IC50 in this record for CO[C@@H]1[C@@H](n2cc(-c3ccc(Cl)c(F)c3F)nn2)[C@@H](O)[C@@H](CO)O[C@@H]1Cc1cn([C@H]2CCC[C@H]2F)nn1 [Example 2.1.79.B] : 3160

IC50 in this record for CO[C@@H]1[C@@H](n2cc(-c3ccc(Br)c(F)c3F)nn2)[C@@H](O)[C@@H](CO)O[C@@H]1Cc1cn(C2(C(F)(F)F)CC2)nn1 [Ex 4.1.54.] : 1170

IC50 in this record for CO[C@@H]1[C@@H](n2cc(-c3ccc(Br)c(F)c3F)nn2)[C@@H](O)[C@@H](CO)O[C@@H]1Cn1cc(C2CCCC2)nn1 [Ex 4.2.32.] : 2680
